# Sox 17 Intensity % of control listing for each entry below
- Test system: H1 or H9 human embryonic stem cells
- Procedure Summary: Activin A bioassay: differentiation of human embryonic stem cells to definitive endoderm, cell number and SOX17 intensity by high content analysis (96-well, four days)
- Format: cell-based
- Assay Conditions: supernatant concentration 10x, assay dilution 1:20; control = R&D Sys Activin A 100 ng/ml on same plate
Answer in %, number only, no unit symbol.

Below, 2 molecules whose answers are already recorded.
ACTN94: activin A variant peptide, SEQ ID 95 (protein) GLECDGKVNICCKKQSFGQAKDIGWNDWIIAPSGYHGGGCTGECPSHIAGTSGSSLSFHSTVINHYRMRGHSPWANLKSCCSPTKLRPMSMLYYDDGQNIIKKDIQRMVAEECGCT :: 10.7
ACTN9: activin A variant peptide, SEQ ID 10 (protein) GLECDGKVNYCCKKQDFVSFKDIGWNDWIIAPSGYHANKCTGKCPSHIAGTSGSSLSFHSTVINHYRMRGHSPFADLGACCIPTKLRPMSMLYYDDGQNIIKKDIQNMIVEECGCS :: 2.6

Now for a further molecule.
Q: What value of measured Sox 17 Intensity % of control is listed for ACTN66: activin A variant peptide, SEQ ID 67 (protein) GLECDGKVNICCKKQMFGQAKDIGWNDWIIAPSGYHGGGCTGECPSHIAGTSGSSLSFHSTVINHYRMRGHSPWANLKSCCSPTKLRPMSMLYYDDGQNIIKKDIQNMVVEECGCT ?
Result: 2.2
